Provenance of the data: PubChem BioAssay

Assay Info: E. coli DRC41 culture turbidity changes, primary screen, E. coli filamentation inducer project, strain DRC41, OD650, 48 h (AID 1152);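 further: E. coli MC1000 strain DRC41 lacking acrAB efflux pump and sulA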
Condition Summary: E. coli DRC41 (acrAB sulA), higher = more signal, called active from +8 up or from −8 down
Label MET when z-score >= -0.4; otherwise NOT MET.

>>> group("CC(C)NC(=O)[C@@]1(c2ccc([N+](=O)[O-])cc2)CC(=O)N(CC23CC4CC(CC(C4)C2)C3)[C@@H]1c1ccc(CO)cc1I")
"NOT MET"
>>> group("COCCOC(=O)N1C(=O)[C@@]2(c3cc(C#Cc4ccc(OC)cc4)ccc31)[C@H](C(=O)N1CCN(c3ncccn3)CC1)[C@H]1C(=O)O[C@H](c3ccccc3)[C@H](c3ccccc3)N1[C@@H]2c1ccc(OCCO)cc1")
"NOT MET"
>>> group("CC(=O)C[C@H](O)[C@@H](NC(=O)OC(C)(C)C)C(C)C")
"NOT MET"
>>> group("O=C1[C@H]2[C@H]3[C@H](O)[C@H](O)CC(=NO[C@@H]4O[C@H](CO)[C@@H](O)[C@H](O)[C@H]4O)[C@@H]3CC[C@H]2C(=O)N1Cc1ccccc1")
"MET"
>>> group("CCc1cc2c(nc1CC)CCN(CCC(C)=NOC[C@@H](O)[C@H]1O[C@@H]3OC(C)(C)O[C@@H]3[C@H]1O)C2")
"NOT MET"

----------
Measured composite z-score values are reported for all entries that follow.
Study Target: Neurogenic locus notch homolog protein 2 (Homo sapiens)
Assay Info: Notch2 binders on small-molecule microarrays, primary screen, biochemical, small-molecule microarray, 635 nm fluorescence, stem cell growth factors (AID 1073)
Condition Summary: Notch2 binding, higher = more signal
Observation Type: composite z-score

>>> result_value("[N-]=[N+]=NCc1ccccc1C[C@]1(C(=O)NCc2ccccc2)N=C(c2ccc(OCCCO)cc2)O[C@H]1c1ccccc1N=[N+]=[N-]")
1.22
>>> result_value("COc1cccc([C@@H]2Oc3ccc(Br)cc3C(=O)[C@H]2O)c1")
0.458
>>> result_value("CC(C)=CCCC(C)=CCON=C1[C@H]2CCn3c(=O)n(C)c(=O)n3[C@H]2[C@H](O)[C@@H]2O[C@H]12")
0.38
>>> result_value("COCCOC(=O)N1C(=O)[C@@]2(c3cc(C#Cc4ccc(OC)cc4)ccc31)[C@H](C(=O)N1CCN(c3ncccn3)CC1)[C@H]1C(=O)O[C@H](c3ccccc3)[C@H](c3ccccc3)N1[C@@H]2c1ccc(OCCO)cc1")
1.35
>>> result_value("C=C(/C(=C/C[C@H](OC(C)=O)c1ccc(OCCO)cc1)c1cnc2ccccc2c1)C(C)C")
1.01
>>> result_value("CC(C)=NOCc1ccc(-c2cc(-c3ccccc3)no2)cc1")
0.29
>>> result_value("CN1C(=O)C2C=CC(C(O)c3ccc(Br)cc3)N(N(c3ccccc3)c3ccccc3)C2C1=O (stereo not given)")
1.09
>>> result_value("CCOC(=O)NN=C1C[C@@H](O)[C@@H](O)[C@@H]2[C@@H]3C(=O)N(C4CCCCC4)C(=O)[C@@H]3CC[C@H]12")
0.932
>>> result_value("CC(CCN1CCc2nc(-c3ccccc3)c(-c3ccccc3)cc2C1)=NOC[C@@H](C)[C@H](OCc1ccccc1)C(C)C")
-1.63
>>> result_value("CCCC[C@@H]1C[C@H]1[C@@H](NS(=O)(=O)c1cccc2cccnc12)c1ccc(-c2ccccc2)cc1")
0.523
>>> result_value("CC(C)(C)OC(=O)CC[C@]1(C(N)=O)COC(c2ccc(OCCCO)cc2)=N1")
1.39
>>> result_value("O=C(CS)NCCCCCNC(=O)[C@@H]1C[C@@H]2C(=O)N[C@@H](Cc3ccccc3)C(=O)N2[C@@H]1c1ccc(O)cc1")
-0.138
>>> result_value("C=C(/C(=C/C[C@H](OC(=O)c1ccncc1)c1ccc(OCCO)cc1)c1cnc2ccccc2c1)C(C)C")
1.29
>>> result_value("C[C@@H](c1ccccc1)N1C(=O)[C@H]2[C@H]3[C@H](O)C=CC(=O)[C@@H]3CC[C@H]2C1=O")
0.348
>>> result_value("C=CC[C@@H]1C=C[C@H](ON=C2c3cc(OC)ccc3O[C@H](c3cccc(OC)c3)[C@H]2O)[C@@H](CO)O1")
0.144
>>> result_value("CCN1C(=O)[C@H]2[C@H]3[C@H](O)C=CC(=O)[C@@H]3CC[C@H]2C1=O")
0.602
>>> result_value("COc1ccc(CCNC(=O)[C@@H]2c3ccccc3C(=O)N(c3ccc(C)cn3)[C@H]2c2ccc(CO)cc2)cc1")
-1.85
>>> result_value("COCCCNC(=O)[C@@]1(CCS(=O)(=O)c2ccccc2)N=C(c2ccc(OCCCO)cc2)O[C@H]1c1ccccc1")
0.674
>>> result_value("C=CCNC(=O)[C@H]1[C@@H]2C(=O)O[C@@H](c3ccccc3)[C@@H](c3ccccc3)N2[C@@H](c2ccc(O)cc2)[C@]12C(=O)N(C(=O)OCCOC)c1ccc(C#CC3=CCCCC3)cc12")
1.05
>>> result_value("CCOC(=O)[C@H](Cc1ccccc1)NC(=O)CCC1CC(OC(=O)NCc2ccc3c(c2)OCO3)CC2(CCCC(COC(=O)NCc3cccc(C(F)(F)F)c3)O2)O1 (stereo not given in full)")
0.981
>>> result_value("COC(=O)[C@@H]1CC[C@H](C)[C@@H](c2ccc(C)cc2)N1C(=O)c1ccc(C=NOC[C@@H](O)COCc2ccco2)cc1")
-1.83
>>> result_value("O=C1[C@H]2[C@H]3[C@H](O)[C@H](O)CC(=NO[C@@H]4O[C@H](CO)[C@@H](O)[C@H](O)[C@H]4O)[C@H]3CC[C@H]2C(=O)N1Cc1ccccc1")
1.4
>>> result_value("CC(C)NC(=O)[C@@H]1c2ccccc2C(=O)N(CC23CC4CC(CC(C4)C2)C3)[C@H]1c1ccc(CO)cc1")
1.38
>>> result_value("COCCCNC(=O)[C@@]1(C)c2ccccc2C(=O)N(Cc2ccc(OC(F)(F)F)cc2)[C@H]1c1ccc(CO)cc1")
-0.505
>>> result_value("NCCCCCNC(=O)[C@@H]1C[C@@H]2C(=O)N3CCC[C@H]3C(=O)N2[C@@H]1c1cccc(OCCO)c1")
0.185
>>> result_value("O=C1[C@H]2[C@H]3[C@H](O)[C@H](O)CC(=NO[C@@H]4O[C@H](CO)[C@@H](O)[C@H](O)[C@H]4O)[C@@H]3CC[C@H]2C(=O)N1c1ccc(F)cc1F")
0.482
>>> result_value("COC(=O)CC=C[C@H](C)[C@@H](OCc1ccccc1Br)C(C)C")
0.0089
>>> result_value("COCCOC(=O)N1C(=O)[C@@]2(c3cc(C#CCNC(N)=O)ccc31)[C@H](c1ccc(O)cc1)N1[C@H](c3ccccc3)[C@H](c3ccccc3)OC(=O)[C@H]1[C@@H]2C(=O)N1CCCCCCC1")
1.1
>>> result_value("Cc1cc2c(c(=O)o1)[C@H](O)[C@H]1O[C@H]1C2=O")
0.749
>>> result_value("COC(=O)CC=C[C@@H](C)[C@H](OC)c1ccccc1Br")
0.119
